The values you see were collected from patent US20050239780A1.

Tested on: plasma lipid in high-cholesterol feed-loaded rats
procedure.summary: Pharmacological test on high-cholesterol feed-loaded rats
Type: in vivo
assay.context: high-cholesterol feed-loaded male SD rats, oral once a day for 7 days, relative to control group
measured.metric: ED50 non-HDL cholesterol lowering effect (mg/kg)
// return numeric value only (unit: mg/kg, not printed)

COCCCN1CCN(C(=O)[C@H](c2ccc(Cn3c4ccccc4c4c(C)c(CCC(=O)O)c(C)nc43)cc2)C2CCOCC2)CC1
1.1
Cc1nc2c(c(C)c1CCC(=O)O)c1cc(F)ccc1n2Cc1ccc([C@@H](C(=O)NCc2ccccc2)C2CCOCC2)cc1
0.063
Cc1nc2c(c(C)c1CCC(=O)O)c1ccccc1n2Cc1ccc([C@@H](C(=O)NCc2cccc(F)c2)C2CCOCC2)cc1
0.032

What the record says about Cc1cc(C)c2c3ccccc3n(Cc3ccc([C@@H](C(=O)N[C@@H](CO)c4ccccc4)C4CCCC4)cc3)c2n1 [Implitapide, reference compound] : ED50 non-HDL cholesterol lowering effect is 1.0

What the record says about "CCCCCN1CCN(C(=O)[C@H](c2ccc(Cn3c4ccccc4c4c(C)c(CCC(=O)O)c(C)nc43)cc2)C2CCOCC2)CC1" : ED50 non-HDL cholesterol lowering effect is 0.19

* * *

The following molecules are shown together with reported ED50 values.
Test system: VLDL secretion in vivo in rats
procedure.summary: Measurement of blood cholesterol and triglyceride in rats (VLDL secretion, Triton WR-1339)
assay.context: Rattus norvegicus; male SD rats, oral, Triton WR-1339 400 mg/kg i.v. after 1 hour, blood after 4 hours; read-out: ED50 TG (triglyceride secretion lowering effect)
Method: 2. Measurement of Blood Cholesterol and Triglyceride in Rats The influence of test compounds on VLDL secretion in vivo in rats was investigated. A 0.5% methyl cellulose suspension containing a test compound was orally administered to male SD rats. […] The total cholesterol and triglyceride in blood were measured by the use of “Cholesterol C Test Wako” and “Triglyceride G Test Wako” (both from Wako Pure Chemical Industries), respectively. […]
// return numeric value only (unit: mg/kg, not printed)

What the record says about "Cc1nc2c(c(C)c1CCC(=O)O)c1ccccc1n2Cc1ccc([C@@H](C(=O)N(C)C)C2CCOCC2)cc1" : ED50 is 0.71

What the record says about "Cc1nc2c(c(C)c1CCC(=O)O)c1ccccc1n2Cc1ccc([C@@H](C(=O)NCc2ccccc2)C2CCOCC2)cc1" : ED50 is 0.24

What the record says about "Cc1nc2c(c(C)c1CCC(=O)O)c1ccccc1n2Cc1ccc([C@@H](C(=O)N2CCN(c3ccccn3)CC2)C2CCOCC2)cc1" : ED50 is 0.39

What the record says about "CCCN1CCN(C(=O)[C@H](c2ccc(Cn3c4ccccc4c4c(C)c(CCC(=O)O)c(C)nc43)cc2)C2CCOCC2)CC1" : ED50 is 0.52

* * *

System: plasma lipid in high-cholesterol feed-loaded rats
procedure.summary: Pharmacological test on high-cholesterol feed-loaded rats
Type: in vivo
assay.context: high-cholesterol feed-loaded male SD rats, oral once a day for 7 days, relative to control group
measured.metric: ED50 non-HDL cholesterol lowering effect
The reply should consist of the numeric value with the unit placed after it.

// known answers, use as guide
Cc1nc2c(c(C)c1CCC(=O)O)c1ccccc1n2Cc1ccc([C@@H](C(=O)N2CCC(c3ccccc3)CC2)C2CCOCC2)cc1 [Example 45]
0.41 mg/kg
Cc1nc2c(c(C)c1CCC(=O)O)c1ccc(F)cc1n2Cc1ccc([C@@H](C(=O)NCc2ccccc2)C2CCOCC2)cc1 [Example 24]
0.040 mg/kg

What the record says about Cc1nc2c(c(C)c1CCC(=O)O)c1ccccc1n2Cc1ccc([C@@H](C(=O)N2CCN(C3CCC3)CC2)C2CCOCC2)cc1 [Example 57] : ED50 non-HDL cholesterol lowering effect is 0.88 mg/kg
